assayInfo: Solubility of CD101 acetate in various media
Assay type: physicochemical
measurementConditions: saline or isotonic; 0.9% Saline (USP); read-out: Solubility
Starred links: 1 amine or outer side, 2 acyl side, 3 side chain; linkers in the order of their positions; H or OH if unused. Positions of bridges follow the written chain, without caps; N, C: chain ends. Non-standard residues stand in square brackets, D forms with d. Residues, ends and D or L forms follow the SMILES beside them. *: point of attachment. Orn(4R-OH,5R-OCH2CH2NMe3+) = C[N+](C)(C)CCO[C@@H](N[*:3])[C@H](O)C[C@H](N[*:1])C(=O)[*:2]; pTerphenylCO(4''-OnC5H11) = CCCCCOc1ccc(-c2ccc(-c3ccc(C(=O)*)cc3)cc2)cc1; hTyr(3S-OH,4S-OH) = N[C@H](C(=O)O)[C@H](O)[C@@H](O)c1ccc(O)cc1; Pro(3S-OH,4S-Me) = C[C@H]1CN[C@H](C(=O)O)[C@H]1O; Hyp = O=C(O)[C@@H]1C[C@@H](O)CN1
measuredEndpoint: solubility

Given item CCCCCOc1ccc(-c2ccc(-c3ccc(C(=O)N[C@H]4C[C@@H](O)[C@@H](OCC[N+](C)(C)C)NC(=O)[C@@H]5[C@@H](O)[C@@H](C)CN5C(=O)[C@H]([C@@H](C)O)NC(=O)[C@H]([C@H](O)[C@@H](O)c5ccc(O)cc5)NC(=O)[C@@H]5C[C@@H](O)CN5C(=O)[C@H]([C@@H](C)O)NC4=O)cc3)cc2)cc1 [CD101 acetate] ({pTerphenylCO(4''-OnC5H11)}-[Orn(4R-OH,5R-OCH2CH2NMe3+)]T[Hyp][hTyr(3S-OH,4S-OH)]T[Pro(3S-OH,4S-Me)]; lactam 1-C) , the value recorded as its solubility is < 0.18 mg/mL
